assay: Plasma pharmacokinetics of BI 187004 after single oral doses (LC–MS/MS); conditions: male, human, plasma, po, 80 mg, BI 187004 plasma concentrations, 80 mg single oral, planned time 48 h, Max
PROPERTY NAME: concentration at 48 h (nM)
Response body: numeric value in nM, unit text excluded.

Quick check: concentration at 48 h of N#Cc1ccc2c(c1)[C@H]1CCCN(C(=O)c3ccc4[nH]cnc4c3)[C@H]1C2 ? 596

###

assay: Plasma pharmacokinetics of BI 187004 after single oral doses (LC–MS/MS); conditions: male, human, plasma, po, 360 mg, BI 187004 plasma concentrations, 360 mg single oral, planned time 6 h, individual subjects
PROPERTY NAME: concentration at 6 h (µM)
Response body: numeric value in µM, unit text excluded.

Quick check: concentration at 6 h of N#Cc1ccc2c(c1)[C@H]1CCCN(C(=O)c3ccc4[nH]cnc4c3)[C@H]1C2 ? 10.2

Source of measurements: paper PMC8364686
